Target: T1, recombinant human Siglec-8 extracellular domain (ECD) (human, UniProt Q9NYZ4 17-363)
T1 construct: extracellular domain; also called Siglec-8 ECD; full Siglec-8 ECD
T1 sequence (Q9NYZ4 17-363): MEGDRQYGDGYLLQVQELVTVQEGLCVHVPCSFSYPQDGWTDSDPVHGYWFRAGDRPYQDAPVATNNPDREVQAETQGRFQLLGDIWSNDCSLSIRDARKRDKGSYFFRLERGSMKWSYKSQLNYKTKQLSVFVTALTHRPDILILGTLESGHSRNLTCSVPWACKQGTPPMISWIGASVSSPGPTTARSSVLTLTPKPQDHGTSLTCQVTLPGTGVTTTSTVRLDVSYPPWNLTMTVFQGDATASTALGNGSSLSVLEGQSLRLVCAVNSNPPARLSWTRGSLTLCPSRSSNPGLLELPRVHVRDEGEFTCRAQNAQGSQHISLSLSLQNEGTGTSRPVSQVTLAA
Test: ELISA, coated Siglec-8 ECD
Recorded Metric: EC50

Input: Read off the recorded EC50 for RHE Y-VKG (antibody, human IgG1, V domains shown, human IgG1/kappa) VH: EVQLVESGGGLVQPGGSLRLSCAASGFSLTIYGAHWVRQAPGKGLEWVGVIWAGGSTNYNSALMSRFTISKDNSKNTVYLQMNSLRAEDTAVYYCARDGSSPYYYSMEVWGQGTTVTVSS VL: EIVLTQSPATLSLSPGERATLSCSATSSVSYMHWYQQKPGQAPRLLIYSTSNLASGIPARFSGSGSGTDFTLTISSLEPEDFAVYYCQQRSSYPFTFGPGTKLDIK
Output: 8.81 nM

Input: Indicate the recorded EC50 value for this binder: HDKC (antibody, human IgG1, V domains shown, human IgG1/kappa) VH: EVQLVESGGGLVQPGGSLRLSCAASGFSLTIYGAHWVRQAPGKGLEWLSVIWAGGSTNYNSALMSRFTISKDNSKNTVYLQMNSLRAEDTAVYYCARDGSSPYYYSMEYWGQGTTVTVSS VL: EIILTQSPATLSLSPGERATLSCSATSSVSYMHWFQQKPGQAPRLLIYSTSNLASGIPARFSGSGSGTDFTLTISSLEPEDFAVYYCQQRSSYPFTFGPGTKLDIK
Output: 0.057 nM

Input: Supply EC50 value. Item: RHE E-DKFmut (antibody, human IgG1, V domains shown, human IgG1/kappa) VH: EVQLVESGGGLVQPGGSLRLSCAASGFSLTIYGAHWVRQAPGKGLEWVGVIWAGGSTNYNSALMSRFTISKDNSKNTVYLQMNSLRAEDTAVYYCARDGSSPYYYSMDYWGQGTTVTVSS VL: EIVLTQSPATLSLSPGERATLSCSATSSVSYMHWFQQKPGQAPRLLIYSTSNLASGIPARFSGSGSGTDYTLTISSLEPEDFAVYYCQQRSSYPYTFGPGTKLDIK
Output: 1.4 nM

Input: State its EC50: HAKFmut (antibody, human IgG1, V domains shown, human IgG1/kappa) VH: EVQLVESGGGLVQPGGSLRLSCAASGFSLTIYGAHWVRQAPGKGLEWVSVIWAGGSTNYNSALMSRFTISKDNSKNTVYLQMNSLRAEDTAVYYCARDGSSPYYYSMEYWGQGTTVTVSS VL: EIVLTQSPATLSLSPGERATLSCSATSSVSYMHWFQQKPGQAPRLLIYSTSNLASGIPARFSGSGSGTDYTLTISSLEPEDFAVYYCQQRSSYPYTFGPGTKLDIK
Output: 0.086 nM

Input: Report EC50, nothing else, for this binder: RHE S-GKA (antibody, human IgG1, V domains shown, human IgG1/kappa) VH: EVQLVESGGGLVQPGGSLRLSCAASGFSLTIYGAHWVRQAPGKGLEWVGVIWAGGSTNYNSALMSRFTISKDNSKNTVYLQMNSLRAEDTAVYYCARDGSSPYYYGMEYWGQGTTVTVSS VL: EIVLTQSPATLSLSPGERATLSCSATSSVSYMHWFQQKPGQAPRLLIYSTSNLASGIPARFSGSGSGTDFTLTISSLEPEDFAVYYCQQRSSYPFTFGPGTKLDIK
Output: 50.6 nM

Each recorded value in this set is attributed to patent US20200054723A1.
